Documented DC50 across a set of compounds
target: L858R/T790M/C797S EGFR (Homo sapiens, UniProt P00533, C797S/L858R/T790M); construct: expressed in transfected cells; host or cells: H1975 clone #25 (lentiviral over-expression, endogenous EGFR knocked out by sgRNA); assay: EGFR degradation HTRF assay in H1975-clone #25 (LTC) cells; format: cell-based; settings: H1975 # 25-LTC (L858R/T790M/C797S), 16h treatment, HTRF
Sequence (P00533 25-1210 T790M/C797S/L858R): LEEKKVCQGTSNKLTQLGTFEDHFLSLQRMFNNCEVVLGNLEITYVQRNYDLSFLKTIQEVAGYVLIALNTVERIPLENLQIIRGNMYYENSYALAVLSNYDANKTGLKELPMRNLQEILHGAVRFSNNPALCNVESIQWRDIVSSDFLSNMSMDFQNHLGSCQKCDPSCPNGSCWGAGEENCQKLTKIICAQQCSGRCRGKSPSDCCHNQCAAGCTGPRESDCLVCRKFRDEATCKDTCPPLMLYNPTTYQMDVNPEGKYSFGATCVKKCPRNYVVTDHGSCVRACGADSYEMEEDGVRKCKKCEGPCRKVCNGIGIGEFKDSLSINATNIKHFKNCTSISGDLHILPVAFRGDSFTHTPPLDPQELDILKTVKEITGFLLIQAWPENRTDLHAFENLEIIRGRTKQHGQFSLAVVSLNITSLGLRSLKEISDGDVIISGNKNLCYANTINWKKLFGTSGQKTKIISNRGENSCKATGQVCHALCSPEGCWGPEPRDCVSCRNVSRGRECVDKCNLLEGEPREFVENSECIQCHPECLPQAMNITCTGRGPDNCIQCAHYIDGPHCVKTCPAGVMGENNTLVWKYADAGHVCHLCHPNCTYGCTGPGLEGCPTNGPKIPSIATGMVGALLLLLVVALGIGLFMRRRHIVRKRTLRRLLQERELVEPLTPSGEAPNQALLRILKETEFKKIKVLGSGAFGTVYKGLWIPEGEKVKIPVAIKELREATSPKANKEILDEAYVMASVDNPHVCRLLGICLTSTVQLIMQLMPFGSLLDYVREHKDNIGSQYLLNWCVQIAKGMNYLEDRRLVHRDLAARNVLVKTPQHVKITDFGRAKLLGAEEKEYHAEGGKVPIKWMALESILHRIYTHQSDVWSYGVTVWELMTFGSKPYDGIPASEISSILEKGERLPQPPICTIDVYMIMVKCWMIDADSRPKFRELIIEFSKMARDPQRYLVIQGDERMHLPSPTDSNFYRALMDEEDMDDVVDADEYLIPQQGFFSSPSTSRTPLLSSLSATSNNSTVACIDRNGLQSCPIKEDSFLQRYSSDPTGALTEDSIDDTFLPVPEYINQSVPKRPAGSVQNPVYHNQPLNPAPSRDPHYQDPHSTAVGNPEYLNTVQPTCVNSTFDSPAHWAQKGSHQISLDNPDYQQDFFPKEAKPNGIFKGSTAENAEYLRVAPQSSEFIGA
Your reply should be a number followed by the unit it is expressed in.

For orientation, consider the following solved cases.
>  <compound>
Cc1cc2cc(n1)-c1cnn(C)c1OCCC[C@@H](C)CN1/C(=N/C2=O)Nc2ccc(C(=O)N3CCC4(CC3)CN(CCc3cc(F)c([C@H]5CCC(=O)NC5=O)c(F)c3)C4)cc21

>  <DC50>
0.464 nM

$$$$
>  <compound>
Cc1cc2cc(n1)-c1cnn(C)c1OCCC[C@@H](C)CN1/C(=N/C2=O)Nc2ccc(CN3CCN(C(=O)C4CN(c5cc(F)c([C@H]6CCC(=O)NC6=O)c(F)c5)C4)CC3)cc21

>  <DC50>
0.9 nM

$$$$
>  <compound>
Cc1cc2cc(n1)-c1cnn(C)c1OCCC[C@@H](C)CN1/C(=C/C2=O)Nc2ccc(CN3CCC(N4CCC(c5cc(F)c([C@H]6CCC(=O)NC6=O)c(F)c5)CC4)CC3)cc21

>  <DC50>
10.6 nM

$$$$
>  <compound>
Cc1cc2cc(n1)-c1cnn(C)c1OCCC[C@@H](C)CN1/C(=N/C2=O)Nc2ccc(C(=O)N(C)[C@H]3CCN(CCc4cc(F)c([C@H]5CCC(=O)NC5=O)c(F)c4)C[C@@H]3F)cc21

>  <DC50>
0.6 nM

$$$$

**Q:** Give a short answer stating reported DC50 for `Cc1cc2cc(n1)-c1cnn(C)c1OCCC[C@@H](C)CN1/C(=N/C2=O)Nc2ccc(C(=O)N(C)[C@@H]3CCN(C4CN(c5cc(F)c([C@H]6CCC(=O)NC6=O)c(F)c5)C4)C[C@@H]3F)cc21` .
**A:** 0.233 nM

**Q:** Tell me measured DC50 for `Cc1cc2cc(n1)-c1cnn(C)c1OCCC[C@@H](C)CN1/C(=N/C2=O)Nc2cc(C)c(C(=O)N(C)C3CCN(CCc4cc(F)c([C@H]5CCC(=O)NC5=O)c(F)c4)CC3)cc21` please.
**A:** 0.386 nM

----------
Measured DC50 values are reported for all entries that follow.
biological target: L858R/T790M/C797S EGFR (Homo sapiens, UniProt P00533, C797S/L858R/T790M); construct: expressed in transfected cells; host or cells: H1975 clone #25 (lentiviral over-expression, endogenous EGFR knocked out by sgRNA); test: EGFR degradation HTRF assay in H1975-clone #25 (LTC) cells; format: cell-based; settings: H1975 # 25-LTC (L858R/T790M/C797S), 16h treatment, HTRF
The response must be a number in nM with no trailing unit.

>  <compound>
Cc1cc2cc(n1)-c1cnn(C)c1OCCC[C@@H](C)CN1/C(=N/C2=O)Nc2ccc(N3CCN(C4CCN(c5ccc(C6CCC(=O)NC6=O)nc5)CC4)CC3=O)cc21 (stereo partly drawn) [Example 395]

>  <quantity_unit>
nM

>  <numeric_value>
1.02

$$$$
>  <compound>
Cc1cc2cc(n1)-c1cnn(C)c1OCCC[C@@H](C)CN1/C(=N/C2=O)Nc2ccc(N3CCC(C(=O)N4CCN(c5cc(F)c([C@H]6CCC(=O)NC6=O)c(F)c5)CC4)CC3)cc21 [Example 333]

>  <quantity_unit>
nM

>  <numeric_value>
0.687

$$$$

Field: next compound
**Q:** Input Cc1cc2cc(n1)-c1cnn(C)c1OCCC[C@@H](C)CN1/C(=N/C2=O)Nc2ccc(N3CC[C@@H](N4CCN(c5cc(F)c([C@H]6CCC(=O)NC6=O)c(F)c5)CC4)CC3=O)cc21 [Example 448] , output reported DC50.
**A:** 0.237
